Several reports have described Kd for Tyrosine-protein kinase JAK2 (Homo sapiens, UniProt O60674); a selection of those results is presented here.

Query: GET Kd | system: Tyrosine-protein kinase JAK2 (Homo sapiens, UniProt O60674) | item: Cc1cc(Nc2nc(C(F)(F)c3ccc(F)cn3)nc3c(S(C)(=O)=O)cccc23)n[nH]1
Reply: 1 to 10 nM

Query: GET Kd | system: Tyrosine-protein kinase JAK2 (Homo sapiens, UniProt O60674) | item: Cc1cc(CNc2[nH]nc(Nc3ccc(N4CCN(C(C)C)CC4)cc3)c2C(N)=O)cc(C)c1O
Reply: 100 to 1000 nM

Query: GET Kd | system: Tyrosine-protein kinase JAK2 (Homo sapiens, UniProt O60674) | item: CC(C)N1Cc2cc(F)ccc2OCCNC(=O)c2cnn3ccc1nc23
Reply: 7.8 nM

Query: GET Kd | system: Tyrosine-protein kinase JAK2 (Homo sapiens, UniProt O60674) | item: Cc1cc(Nc2nc(S(=O)(=O)c3ccc(F)cc3)nc3c2cnn3-c2ccccc2)n[nH]1
Reply: 1 to 10 nM

Query: GET Kd | system: Tyrosine-protein kinase JAK2 (Homo sapiens, UniProt O60674) | item: Cc1cc(Nc2nc(C(F)(F)c3ccc(F)cn3)nc3cc(C(N)=O)ccc23)n[nH]1
Reply: ≤ 1 nM

Query: GET Kd | system: Tyrosine-protein kinase JAK2 (Homo sapiens, UniProt O60674) | item: COc1ccc2c(Nc3cc(C)[nH]n3)nc(C(F)(F)c3ccc(F)cc3)nc2c1
Reply: ≤ 1 nM

Query: GET Kd | system: Tyrosine-protein kinase JAK2 (Homo sapiens, UniProt O60674) | item: Cc1cc(Nc2nc(C(F)(F)c3ccc(F)cn3)nc3cc(C4CC4)ccc23)n[nH]1
Reply: ≤ 1 nM

Query: GET Kd | system: Tyrosine-protein kinase JAK2 (Homo sapiens, UniProt O60674) | item: Cc1cc(Nc2nc(C(F)(F)c3ccc(F)cn3)nc3c(C4CC4)cccc23)n[nH]1
Reply: ≤ 1 nM

Query: GET Kd | system: Tyrosine-protein kinase JAK2 (Homo sapiens, UniProt O60674) | item: Cc1cc(Nc2n[nH]c(NCc3cc(C)c(O)c(C)c3)c2C(N)=O)cnc1N1CCOCC1
Reply: > 1000 nM

Query: GET Kd | system: Tyrosine-protein kinase JAK2 (Homo sapiens, UniProt O60674) | item: O=C(c1ccc(F)cc1)c1nc(Nc2cc[nH]n2)c2ccccc2n1
Reply: ≤ 1 nM

Query: GET Kd | system: Tyrosine-protein kinase JAK2 (Homo sapiens, UniProt O60674) | item: Cc1cc(CNc2[nH]nc(Nc3ccc(N4CCS(=O)(=O)CC4)cc3)c2C(N)=O)cc(C)c1O
Reply: 100 to 1000 nM

Query: GET Kd | system: Tyrosine-protein kinase JAK2 (Homo sapiens, UniProt O60674) | item: Cc1cc(CNc2[nH]nc(Nc3ccc(-c4ccccn4)cc3)c2C(N)=O)cc(C)c1O
Reply: > 1000 nM

Query: GET Kd | system: Tyrosine-protein kinase JAK2 (Homo sapiens, UniProt O60674) | item: Cc1cc(Nc2nc(C(=O)c3cccc(F)c3)nc3ccccc23)n[nH]1
Reply: 1 to 10 nM

Query: GET Kd | system: Tyrosine-protein kinase JAK2 (Homo sapiens, UniProt O60674) | item: Cc1cc(Nc2nc(C(F)(F)c3ccc(F)cn3)nc3c(NC=O)cccc23)n[nH]1
Reply: ≤ 1 nM

Query: GET Kd | system: Tyrosine-protein kinase JAK2 (Homo sapiens, UniProt O60674) | item: Cc1cc(Nc2nc(C(F)(F)c3ccc(F)cn3)nc3cc(F)ccc23)n[nH]1
Reply: ≤ 1 nM

Query: GET Kd | system: Tyrosine-protein kinase JAK2 (Homo sapiens, UniProt O60674) | item: Cc1cc(Nc2nc(C(O)c3ccc(F)cc3)nc3cc(OCC(=O)O)ccc23)n[nH]1 (racemic)
Reply: ≤ 1 nM

Query: GET Kd | system: Tyrosine-protein kinase JAK2 (Homo sapiens, UniProt O60674) | item: Cc1cc(Nc2nc(C(O)c3ccc(F)cc3)nc3cc(Cl)ccc23)n[nH]1 (racemic)
Reply: 1 to 10 nM

Query: GET Kd | system: Tyrosine-protein kinase JAK2 (Homo sapiens, UniProt O60674) | item: COc1ccccc1C(=O)Nc1ccc(Nc2n[nH]c(NCc3cc(C)c(O)c(C)c3)c2C(N)=O)cc1
Reply: > 1000 nM

Query: GET Kd | system: Tyrosine-protein kinase JAK2 (Homo sapiens, UniProt O60674) | item: Cc1cc(Nc2nc(C(F)(F)c3ccc(F)cc3)nc3nc(N4CCN(C)CC4)sc23)n[nH]1
Reply: 1 to 10 nM

Query: GET Kd | system: Tyrosine-protein kinase JAK2 (Homo sapiens, UniProt O60674) | item: Cc1cc(CNc2[nH]nc(Nc3ccc(N4C[C@@H](C)O[C@@H](C)C4)nc3)c2C(N)=O)cc(C)c1O
Reply: > 1000 nM

Query: GET Kd | system: Tyrosine-protein kinase JAK2 (Homo sapiens, UniProt O60674) | item: Cc1cc(Nc2nc(S(=O)(=O)c3ccc(F)cc3)nc3c2ccn3CCO)n[nH]1
Reply: ≤ 1 nM

Query: GET Kd | system: Tyrosine-protein kinase JAK2 (Homo sapiens, UniProt O60674) | item: Cc1cc(Nc2nc(C(F)(F)c3ccc(F)cn3)nc3cc(Cl)ccc23)n[nH]1
Reply: ≤ 1 nM

Query: GET Kd | system: Tyrosine-protein kinase JAK2 (Homo sapiens, UniProt O60674) | item: Cc1cc(Nc2nc(C(=O)c3ccc(F)cc3)nc3ccccc23)n[nH]1
Reply: ≤ 1 nM

Query: GET Kd | system: Tyrosine-protein kinase JAK2 (Homo sapiens, UniProt O60674) | item: Cc1cc(CNc2[nH]nc(Nc3ccc(F)cc3)c2C(N)=O)cc(C)c1O
Reply: > 1000 nM

Query: GET Kd | system: Tyrosine-protein kinase JAK2 (Homo sapiens, UniProt O60674) | item: CNc1nc2nc(C(F)(F)c3ccc(F)cc3)nc(Nc3cc(C)[nH]n3)c2s1
Reply: 1 to 10 nM

Query: GET Kd | system: Tyrosine-protein kinase JAK2 (Homo sapiens, UniProt O60674) | item: Cc1cc(Nc2nc(C(F)(F)c3ccc(F)cn3)nc3cc(S(C)(=O)=O)ccc23)n[nH]1
Reply: ≤ 1 nM
